# Lookup of reported abundance fitness keyed by entry
B1: Calcium-binding protein 2, residues 155 to 219; numbered along this chain, Q9NPB3 (parent)
chain: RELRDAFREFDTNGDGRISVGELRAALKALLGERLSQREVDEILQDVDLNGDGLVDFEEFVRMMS

# Variants of: B1
# protocol: abundance fitness (aPCA) (normalised: wild type 0, dead -1); higher = more abundant; growth selection in yeast, the domain comes from the species named
# settings: Homo sapiens

Worked cases, answers included:
D56Y
-0.198
G32K
-0.206

Now turn to the next variant.
For "D52T" , write its abundance fitness. -0.196
